Species: Rattus norvegicus
Test: Open TG-GATES - Regimen: Single
Format: toxicity, organism-based, Sprague-Dawley
Parameters: regimen Single, gender Male, age 6 weeks
Details: in vivo, po, 100 mg/kg, 3 h, tissue Kidney, route gavage, dose level Low
assay_endpoint: KIDNEY_TOTAL (g)
Give the value in g but do not write g after it.

[Q] # get_value(readout='KIDNEY_TOTAL', item= Cc1nnc2n1-c1ccc(Cl)cc1C(c1ccccc1Cl)=NC2 [TRIAZOLAM] )
[A] 1.7

[Q] # get_value(readout='KIDNEY_TOTAL', item= CNC(=C[N+](=O)[O-])NCCSCc1ccc(CN(C)C)o1 [RANITIDINE] )
[A] 2

New cases:
[Q] # get_value(readout='KIDNEY_TOTAL', item= O=C(OC[C@H]1O[C@@H](OC(=O)c2cc(O)c(O)c(OC(=O)c3cc(O)c(O)c(O)c3)c2)[C@H](OC(=O)c2cc(O)c(O)c(OC(=O)c3cc(O)c(O)c(O)c3)c2)[C@@H](OC(=O)c2cc(O)c(O)c(OC(=O)c3cc(O)c(O)c(O)c3)c2)[C@@H]1OC(=O)c1cc(O)c(O)c(OC(=O)c2cc(O)c(O)c(O)c2)c1)c1cc(O)c(O)c(OC(=O)c2cc(O)c(O)c(O)c2)c1 [TANNIC ACID] )
[A] 1.7

[Q] # get_value(readout='KIDNEY_TOTAL', item= COC(=O)C1=C(C)NC(C)=C(C(=O)OC)C1c1ccccc1[N+](=O)[O-] [NIFEDIPINE] )
[A] 1.8

[Q] # get_value(readout='KIDNEY_TOTAL', item= CN/C(=N/CCSCc1nc[nH]c1C)NC#N [CIMETIDINE] )
[A] 2

* * *

Each record here notes measured MCH.
Species: Rattus norvegicus
Test: Open TG-GATES - Regimen: Single
Assay type: toxicity, organism-based, Sprague-Dawley
Set-up: regimen Single, gender Male, age 6 weeks
Conditions: in vivo, po, 300 mg/kg, 3 h, tissue Blood, route gavage, dose level Middle
Give the value in pg but do not write pg after it.

[Q] # get_value(readout='MCH', item= "COC(=O)C1=C(C)NC(C)=C(C(=O)OC)C1c1ccccc1[N+](=O)[O-]" )
[A] 21

[Q] # get_value(readout='MCH', item= "Cc1nnc2n1-c1ccc(Cl)cc1C(c1ccccc1Cl)=NC2" )
[A] 21

[Q] # get_value(readout='MCH', item= "O=C(OC[C@H]1O[C@@H](OC(=O)c2cc(O)c(O)c(OC(=O)c3cc(O)c(O)c(O)c3)c2)[C@H](OC(=O)c2cc(O)c(O)c(OC(=O)c3cc(O)c(O)c(O)c3)c2)[C@@H](OC(=O)c2cc(O)c(O)c(OC(=O)c3cc(O)c(O)c(O)c3)c2)[C@@H]1OC(=O)c1cc(O)c(O)c(OC(=O)c2cc(O)c(O)c(O)c2)c1)c1cc(O)c(O)c(OC(=O)c2cc(O)c(O)c(O)c2)c1" )
[A] 21.9

[Q] # get_value(readout='MCH', item= "CNC(=C[N+](=O)[O-])NCCSCc1ccc(CN(C)C)o1" )
[A] 21.7

We next turn to a different molecule, shown below.
[Q] # get_value(readout='MCH', item= "CN/C(=N/CCSCc1nc[nH]c1C)NC#N" )
[A] 21.5

* * *

Species on record: Rattus norvegicus
Assay: Open TG-GATES - Regimen: Daily Repeat
Format: toxicity, organism-based, Sprague-Dawley
Set-up: regimen Daily Repeat, gender Male, age 6 weeks
Settings: in vivo, po, 1000 mg/kg, 72 h, tissue Plasma, route gavage, dose level High, time 3 day
assay_endpoint: log10(TBIL) (log10 of the value in mg/dL)
Scale: log10; quantity: TBIL; unit before log: mg/dL

Worked cases, log10(TBIL) given:
[Q] # get_value(readout='log10(TBIL)', item= "CCOc1ccc(NC(C)=O)cc1" )
[A] -1.04

[Q] # get_value(readout='log10(TBIL)', item= "CNC(=C[N+](=O)[O-])NCCSCc1ccc(CN(C)C)o1" )
[A] -0.70

New cases:
[Q] # get_value(readout='log10(TBIL)', item= "O=C(OC[C@H]1O[C@@H](OC(=O)c2cc(O)c(O)c(OC(=O)c3cc(O)c(O)c(O)c3)c2)[C@H](OC(=O)c2cc(O)c(O)c(OC(=O)c3cc(O)c(O)c(O)c3)c2)[C@@H](OC(=O)c2cc(O)c(O)c(OC(=O)c3cc(O)c(O)c(O)c3)c2)[C@@H]1OC(=O)c1cc(O)c(O)c(OC(=O)c2cc(O)c(O)c(O)c2)c1)c1cc(O)c(O)c(OC(=O)c2cc(O)c(O)c(O)c2)c1" )
[A] -0.40

[Q] # get_value(readout='log10(TBIL)', item= "CN/C(=N/CCSCc1nc[nH]c1C)NC#N" )
[A] -0.70

[Q] # get_value(readout='log10(TBIL)', item= "Cc1nnc2n1-c1ccc(Cl)cc1C(c1ccccc1Cl)=NC2" )
[A] -1.32

[Q] # get_value(readout='log10(TBIL)', item= "COC(=O)C1=C(C)NC(C)=C(C(=O)OC)C1c1ccccc1[N+](=O)[O-]" )
[A] -1.49

* * *

Species: Rattus norvegicus
Assay: Open TG-GATES - Regimen: Single
Type: toxicity, organism-based, Sprague-Dawley
Parameters: regimen Single, gender Male, age 6 weeks
Settings: in vivo, po, 0 mg/kg, 9 h, tissue Blood, route gavage, dose level Control
assay_endpoint: Ht (%)
Give the value in % but do not write % after it.

[Q] # get_value(readout='Ht', item= Brc1ccccc1 [BROMOBENZENE] )
[A] 38.8

[Q] # get_value(readout='Ht', item= CNC(=C[N+](=O)[O-])NCCSCc1ccc(CN(C)C)o1 [RANITIDINE] )
[A] 39.1

[Q] # get_value(readout='Ht', item= CC(C)NNC(=O)c1ccncc1 [IPRONIAZID] )
[A] 37.8

[Q] # get_value(readout='Ht', item= Nc1c2c(nc3ccccc13)CCCC2 [TACRINE] )
[A] 38.4

[Q] # get_value(readout='Ht', item= O=C(OC[C@H]1O[C@@H](OC(=O)c2cc(O)c(O)c(OC(=O)c3cc(O)c(O)c(O)c3)c2)[C@H](OC(=O)c2cc(O)c(O)c(OC(=O)c3cc(O)c(O)c(O)c3)c2)[C@@H](OC(=O)c2cc(O)c(O)c(OC(=O)c3cc(O)c(O)c(O)c3)c2)[C@@H]1OC(=O)c1cc(O)c(O)c(OC(=O)c2cc(O)c(O)c(O)c2)c1)c1cc(O)c(O)c(OC(=O)c2cc(O)c(O)c(O)c2)c1 [TANNIC ACID] )
[A] 38.4

New cases:
[Q] # get_value(readout='Ht', item= CCCc1cc(=O)[nH]c(=S)[nH]1 [PROPYLTHIOURACIL] )
[A] 39.7

[Q] # get_value(readout='Ht', item= CCOc1ccc(NC(C)=O)cc1 [PHENACETIN] )
[A] 39.7

* * *

Organism: Rattus norvegicus
Assay: Open TG-GATES - Regimen: Single
Format: toxicity, organism-based, Sprague-Dawley
Set-up: regimen Single, gender Male, age 6 weeks
Details: in vivo, po, 0 mg/kg, 9 h, tissue Plasma, route gavage, dose level Control
assay_endpoint: IP (mg/dL)
Give the value in mg/dL but do not write mg/dL after it.

[Q] # get_value(readout='IP', item= "O=C(OC[C@H]1O[C@@H](OC(=O)c2cc(O)c(O)c(OC(=O)c3cc(O)c(O)c(O)c3)c2)[C@H](OC(=O)c2cc(O)c(O)c(OC(=O)c3cc(O)c(O)c(O)c3)c2)[C@@H](OC(=O)c2cc(O)c(O)c(OC(=O)c3cc(O)c(O)c(O)c3)c2)[C@@H]1OC(=O)c1cc(O)c(O)c(OC(=O)c2cc(O)c(O)c(O)c2)c1)c1cc(O)c(O)c(OC(=O)c2cc(O)c(O)c(O)c2)c1" )
[A] 10.8

New cases:
[Q] # get_value(readout='IP', item= "Nc1c2c(nc3ccccc13)CCCC2" )
[A] 9.9

* * *

Species: Rattus norvegicus
Assay: Open TG-GATES - Regimen: Single
Assay type: toxicity, organism-based, Sprague-Dawley
Design: regimen Single, gender Male, age 6 weeks
Settings: in vivo, po, 100 mg/kg, 24 h, tissue Blood, route gavage, dose level Low
assay_endpoint: Hb (g/dL)
Give the value in g/dL but do not write g/dL after it.

Worked cases, Hb given:
[Q] # get_value(readout='Hb', item= COC(=O)C1=C(C)NC(C)=C(C(=O)OC)C1c1ccccc1[N+](=O)[O-] [NIFEDIPINE] )
[A] 13

[Q] # get_value(readout='Hb', item= Cc1nnc2n1-c1ccc(Cl)cc1C(c1ccccc1Cl)=NC2 [TRIAZOLAM] )
[A] 13.3

[Q] # get_value(readout='Hb', item= CNC(=C[N+](=O)[O-])NCCSCc1ccc(CN(C)C)o1 [RANITIDINE] )
[A] 13.9

New cases:
[Q] # get_value(readout='Hb', item= O=C(OC[C@H]1O[C@@H](OC(=O)c2cc(O)c(O)c(OC(=O)c3cc(O)c(O)c(O)c3)c2)[C@H](OC(=O)c2cc(O)c(O)c(OC(=O)c3cc(O)c(O)c(O)c3)c2)[C@@H](OC(=O)c2cc(O)c(O)c(OC(=O)c3cc(O)c(O)c(O)c3)c2)[C@@H]1OC(=O)c1cc(O)c(O)c(OC(=O)c2cc(O)c(O)c(O)c2)c1)c1cc(O)c(O)c(OC(=O)c2cc(O)c(O)c(O)c2)c1 [TANNIC ACID] )
[A] 12.8

[Q] # get_value(readout='Hb', item= CN/C(=N/CCSCc1nc[nH]c1C)NC#N [CIMETIDINE] )
[A] 12.7
